# target_entity: Recombinant human IKK3 (Homo sapiens)
# Construct: FLAG
# experiment: IKK3 TR-FRET kinase assay
# condition_description: IKK3 15 nM, GST-IκBα 25 nM, ATP 2 μM, 15 minutes at room temperature
# Experimental: Recombinant human IKK3 was expressed in baculovirus as a FLAG tagged fusion protein, and its activity was assessed using a time-resolved fluorescence resonance energy transfer (TR-FRET) assay. […] The degree of phosphorylation of GST-IκBα was measured using a Packard Discovery plate reader (Perkin-Elmer Life Sciences, Pangbourne, UK) as a ratio of specific 665 nm energy transfer signal to reference europium 620 nm signal.
In this section we review reported IC50 values for a set of compounds.

Result for COc1cc2c(cc1OCCN1CCOCC1)ncn2-c1cc(OCc2ccccc2C(F)(F)F)c(C#N)s1 , tested on Recombinant human IKK3 (Homo sapiens), IC50: < 1000 nM

Summary line: COc1cc2ncn(-c3cc(OCc4ccccc4S(C)(=O)=O)c(C#N)s3)c2cc1OC , Recombinant human IKK3 (Homo sapiens), reported IC50 = < 1000 nM

Form field, IC50 with Recombinant human IKK3 (Homo sapiens), item COc1cc2ncn(-c3cc(OCc4ccccc4C(F)(F)F)c(C#N)s3)c2cc1OC : < 1000 nM

Entry COc1cc2ncn(-c3cc(OCc4cccs4)c(C#N)s3)c2cc1OC : IC50 on Recombinant human IKK3 (Homo sapiens) = < 1000 nM

# N#Cc1sc(-n2cnc3cc(Cl)ccc32)cc1OCc1ccccc1 with Recombinant human IKK3 (Homo sapiens): IC50 is 1000 to 10000 nM

Noted IC50 for COc1cc2ncn(-c3cc(OCC4CCCCO4)c(C#N)s3)c2cc1OC (stereo not drawn) , tested on Recombinant human IKK3 (Homo sapiens): < 1000 nM

# lookup: COc1cc2ncn(-c3cc(OCC4CCCCC4)c(C#N)s3)c2cc1OC on Recombinant human IKK3 (Homo sapiens), IC50 = < 1000 nM

Bench note, Recombinant human IKK3 (Homo sapiens): COc1cc2ncn(-c3cc(OCCc4ccccc4)c(C#N)s3)c2cc1OC , IC50 reads < 1000 nM

# next compound below
GET /values?item= N#Cc1sc(-n2cnc3ccccc32)cc1OCc1ccccc1 &system= Recombinant human IKK3 (Homo sapiens) returns IC50: 1000 to 10000 nM

---

# target_entity: Recombinant human IKK3 (Homo sapiens, UniProt Q14164)
# Construct: FLAG; made in house
# Sequence (Q14164 1-716): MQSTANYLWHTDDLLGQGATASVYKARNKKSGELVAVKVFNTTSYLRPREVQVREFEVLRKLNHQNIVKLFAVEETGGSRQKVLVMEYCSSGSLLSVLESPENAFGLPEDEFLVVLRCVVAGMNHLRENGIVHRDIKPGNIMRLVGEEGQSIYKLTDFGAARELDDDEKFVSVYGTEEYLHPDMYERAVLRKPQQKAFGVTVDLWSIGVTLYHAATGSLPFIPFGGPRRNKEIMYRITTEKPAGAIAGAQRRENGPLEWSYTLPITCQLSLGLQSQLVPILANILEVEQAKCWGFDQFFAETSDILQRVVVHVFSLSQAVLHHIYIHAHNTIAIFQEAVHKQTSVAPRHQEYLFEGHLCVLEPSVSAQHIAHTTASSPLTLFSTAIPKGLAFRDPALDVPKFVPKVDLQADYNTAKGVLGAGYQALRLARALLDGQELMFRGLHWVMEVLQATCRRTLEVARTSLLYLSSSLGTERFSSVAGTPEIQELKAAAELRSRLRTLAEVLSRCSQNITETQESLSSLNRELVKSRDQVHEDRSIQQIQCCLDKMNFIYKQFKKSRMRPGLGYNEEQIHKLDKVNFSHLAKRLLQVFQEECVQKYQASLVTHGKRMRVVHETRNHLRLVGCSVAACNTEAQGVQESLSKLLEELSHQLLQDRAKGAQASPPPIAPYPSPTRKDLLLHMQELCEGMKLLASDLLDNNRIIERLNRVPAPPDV
# experiment: IKK3 TR-FRET kinase assay
# Format: biochemical
# condition_description: IKK3 15 nM, GST-IκBα 25 nM, ATP 2 μM, 15 minutes at room temperature
pIC50: −log10 of the molar value.
measurement_kind: pIC50

Observe how each entry below is paired with its result.
CCC[C@H](Oc1cc(-n2cnc3cc(OC)c(OC)cc32)sc1C#N)c1ccccc1Cl yielded pIC50 of > 6.00

The compound listed as COc1cc2ncn(-c3cc(OCc4cc(F)ccc4F)c(C#N)s3)c2cc1OC shows pIC50 equal to > 6.00

Summary for this compound, COc1cc2ncn(-c3cc(OCCN4CCCC4=O)c(C#N)s3)c2cc1OC : pIC50 is > 6.00

Continuing:
# pIC50 (compound: CC[C@@H](C)Oc1cc(-n2cnc3cc(OC)c(OC)cc32)sc1C#N ) is 5.00 to 6.00

response.value for COc1cc2c(cc1OCCCO)ncn2-c1cc(OCc2ccccc2C(F)(F)F)c(C#N)s1 (field: pIC50) = > 6.00

Reported pIC50 of N#Cc1sc(-n2cnc3cc(C(=O)NCCN4CCOCC4)ccc32)cc1OCc1ccccc1C(F)(F)F : > 6.00

Just so you know, measured pIC50 for Cc1ccccc1COc1cc(-n2cnc3ccccc32)sc1C#N came out at > 6.00

Entry COc1cc2ncn(-c3cc(O[C@H](C)c4ccccc4C(F)(F)F)c(C#N)s3)c2cc1OC ; pIC50 = 5.00 to 6.00

The compound listed as COc1cc2ncn(-c3cc(OCc4ccncc4Br)c(C#N)s3)c2cc1OC shows pIC50 equal to 5.00 to 6.00

So, COc1cc2ncn(-c3cc(OCc4c(F)cccc4F)c(C#N)s3)c2cc1OC ? Its pIC50 was > 6.00

So for COc1cc2ncn(-c3cc(OCc4ccccc4OC(F)(F)F)c(C#N)s3)c2cc1OC , the logged pIC50 turned out to be > 6.00

Documented pIC50 of COc1cc2ncn(-c3cc(OCc4ccc5nnn(C)c5c4)c(C#N)s3)c2cc1OC : > 6.00

// pIC50 value for COc1cc2ncn(-c3cc(OCC4CCCO4)c(C#N)s3)c2cc1OC (stereo not shown) : 5.00 to 6.00

Lab book: pIC50 of COc1cc2ncn(-c3cc(O[C@H](C)c4ccccc4Cl)c(C#N)s3)c2cc1OC noted as 5.00 to 6.00

Given item COc1cc2ncn(-c3cc(OCCN4CCOCC4)c(C#N)s3)c2cc1OC , the value recorded as its pIC50 is 5.00 to 6.00

For COc1cc2ncn(-c3cc(OCc4ccc(CO)cc4)c(C#N)s3)c2cc1OC the compound record lists pIC50 as > 6.00

pIC50 for COc1cc2ncn(-c3cc(OCc4ccsc4)c(C#N)s3)c2cc1OC is > 6.00

Lab book: pIC50 of COc1ccccc1COc1cc(-n2cnc3cc(OC)c(OC)cc32)sc1C#N noted as 5.00 to 6.00

pIC50 measured on COc1cc2ncn(-c3cc(OCCOc4ccccc4)c(C#N)s3)c2cc1OC = > 6.00
